protocol-summary: Stability in simulated intestinal fluid
Type: in vitro ADME
particulars: simulated gi fluid; 2 μM, 37° C., pH 7.5; read-out: half-life (t1/2) in simulated intestinal fluid
Where a SMILES comes first, the peptide text is derived from it. [ ]: non-standard residue; d: D form. ξ: configuration not given here. ξαMeBip(2'-Et,4'-OMe) = CCc1cc(OC)ccc1-c1ccc(CC(C)(N)C(=O)O)cc1; ξαMe(hhPhe) = CC(N)(CCCc1ccccc1)C(=O)O; ξαMeP = CC1(C(=O)O)CCCN1
measurement-type: half-life (min)
Report as a plain number; the unit min is understood.

// query Form field: reported half-life of CCc1cc(OC)ccc1-c1ccc(CC(C)(NC(=O)[C@H](CC(=O)O)NC(=O)[C@H](CO)NC(=O)[C@@H](NC(=O)[C@H](Cc2ccccc2)NC(=O)[C@@H](NC(=O)CNC(=O)[C@H](CCC(=O)O)NC(=O)C2(C)CCCN2C(=O)[C@H](Cc2c[nH]cn2)NC(=O)[C@@H](N)C(C)C)[C@@H](C)O)[C@@H](C)O)C(=O)NC(C)(CCCc2ccccc2)C(N)=O)cc1 (some centres unmarked) [compound 140] (H-VH[ξαMeP]EGTFTSD[ξαMeBip(2'-Et,4'-OMe)][ξαMe(hhPhe)]-NH2)
// result 30

The measured values listed here are drawn from patent US20120264685A1.
